This section presents molecules with their documented B-score values.
- Experimental target: Sodium-dependent dopamine transporter (Homo sapiens) (UniProt Q01959)
- Sequence (Q01959 whole entry, looked up): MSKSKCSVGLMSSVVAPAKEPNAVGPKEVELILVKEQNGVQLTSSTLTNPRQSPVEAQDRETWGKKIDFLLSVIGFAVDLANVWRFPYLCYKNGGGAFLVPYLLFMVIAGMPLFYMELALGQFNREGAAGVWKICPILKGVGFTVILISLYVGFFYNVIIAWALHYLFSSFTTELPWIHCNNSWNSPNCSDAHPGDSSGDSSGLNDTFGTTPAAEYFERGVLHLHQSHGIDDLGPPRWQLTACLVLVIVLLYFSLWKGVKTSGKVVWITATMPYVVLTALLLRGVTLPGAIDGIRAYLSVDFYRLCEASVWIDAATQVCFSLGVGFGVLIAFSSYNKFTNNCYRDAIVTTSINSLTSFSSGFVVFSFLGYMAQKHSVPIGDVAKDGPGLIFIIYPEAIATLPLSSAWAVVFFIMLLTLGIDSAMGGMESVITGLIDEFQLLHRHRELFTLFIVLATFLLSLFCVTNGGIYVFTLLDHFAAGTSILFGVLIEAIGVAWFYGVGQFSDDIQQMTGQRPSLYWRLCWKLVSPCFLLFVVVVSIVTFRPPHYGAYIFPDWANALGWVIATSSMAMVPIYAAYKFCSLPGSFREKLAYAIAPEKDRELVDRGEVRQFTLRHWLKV
- Method: modulators of human DAT uptake with cocaine – cell-based, LLC-PK1 hDAT, [14C]-dopamine uptake, MLSMR, cocaine antagonist project, primary screen (AID 449768);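 note: scored against the spread of the other compound wells on the same plate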
- Stated conditions: LLC-PK1 hDAT cells, [14C]-dopamine uptake with cocaine IC80; at 10 µM; actives deviate in either direction
Screen size: about 110,000 compounds; about 1,400 (1.3%) were called active. Only a selection was taken, and actives are over-represented in it overall.

Some entries whose results are on file:
CCCOc1ccc(C2C(C(=O)c3ccc(C)o3)=C(O)C(=O)N2CCCn2ccnc2)cc1 (centres undefined) :: 0.735 (inactive)
C#CCOCCOCCOCCNc1nc(N2CCN(C(=O)[C@H](C(C)C)n3cc(CCO)nn3)CC2)nc(N2CCN(C(=O)[C@H](C(C)C)n3cc(CCO)nn3)CC2)n1 :: -0.703 (inactive)
NC(=O)CC[C@@H]1NC(=O)[C@@H]2CCCN2C(=O)c2cc([N+](=O)[O-])cc(F)c2NCCC[C@@H](C(N)=O)NC1=O :: -0.0519 (inactive)

Give the measured B-score of O=C(NCc1ccccc1)c1onc(CSc2ccncc2)c1C(=O)NCc1ccccc1 .
-1.52 (inactive)

Entry under review: CC(=O)c1ccc(NC(=O)N[C@@H](Cc2ccccc2)C(=O)O)cc1 . Reported B-score?
3.14 (active)

Quick check: B-score of CCOC(=O)N1CCN(C(=O)c2ccc3c(c2)N(Cc2ccc(C)cc2)CCS3)CC1 ?
0.333 (inactive)

Dear colleague, I am looking for the recorded B-score of the following molecule: CS(=O)(=O)c1ccc2nc(NC(=O)C3CCCCC3)sc2c1
2.38 (inactive)

B-score lookup needed for C#CCO[C@@H]1C[C@H](n2cnc3c(=O)[nH]c(NC(=O)C(C)C)nc32)O[C@@H]1CO , thanks.
0.438 (inactive)

Consider the molecule O=C(Nc1nc2ccc(S(=O)(=O)N3CCCC3)cc2s1)C1CCCO1 (centres undefined) and give its measured B-score.
2.39 (active)

Need B-score, item CC(NC(=O)Nc1ccccc1)C(c1cccs1)N1CCN(c2ccccc2)CC1 (centres undefined)
-0.314 (inactive)

// B-score lookup, key: COC(=O)[C@H](Cc1ccccc1)NC(=O)Nc1ccc(S(N)(=O)=O)cc1
0.0225 (inactive)

For the molecule shown here, CCc1nnc(SCc2cccc(F)c2)nc1CC , give the reported B-score.
-0.0254 (inactive)

Fill in the blank: the reported B-score of Cc1cc(C)cc(N(C(C)C(=O)Nc2c(C)n(C)n(-c3ccccc3)c2=O)S(C)(=O)=O)c1 (centres undefined) is ____.
-0.551 (inactive)

Which measured B-score value corresponds to CCN1C(=O)N[C@@H](c2ccccc2)C(C(=O)OC)=C1C ?
-0.748 (inactive)

* * *

- Experimental target: Sodium-dependent dopamine transporter (Homo sapiens) (UniProt Q01959)
- Method: modulators of human DAT uptake with cocaine – cell-based, LLC-PK1 hDAT, [14C]-dopamine uptake, MLSMR, cocaine antagonist project, primary screen (AID 449768);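 note: scored against the spread of the other compound wells on the same plate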
- Stated conditions: LLC-PK1 hDAT cells, [14C]-dopamine uptake with cocaine IC80; at 10 µM; actives deviate in either direction
In all, about 110,000 compounds went through this assay and about 1,400 (1.3%) were called active. The sample holds actives, similar compounds and a random draw of the others, so the mix is not that of the screen.
Measured parameter: B-score
Hey, just send me the number, nothing else.

O=C(Nc1ccc2oc(-c3ccc4ccccc4c3)nc2c1)c1cccs1 :: -1.07
CCCCCC(=O)Nc1ccc2oc(-c3ccncc3)nc2c1 :: 1.15
COc1ccc(SCCN2CCN(CC(C)C)CCC2=O)cc1 :: -0.972
CCOC(=O)c1sc(NC(=O)c2ccncc2)nc1C :: 0.297
O=C(Cc1cccc2ccccc12)Nc1ccc2oc(-c3ccccc3)nc2c1 :: -7.38

// next item, B-score requested
Which B-score is reported for this compound? Cc1nnc2sc(-c3ccco3)nn12
-0.595

* * *

- Experimental target: Sodium-dependent dopamine transporter (Homo sapiens)
- Method: modulators of human DAT uptake with cocaine – cell-based, LLC-PK1 hDAT, [14C]-dopamine uptake, MLSMR, cocaine antagonist project, primary screen (AID 449768);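 note: scored against the spread of the other compound wells on the same plate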
- Stated conditions: LLC-PK1 hDAT cells, [14C]-dopamine uptake with cocaine IC80; at 10 µM; actives deviate in either direction
Hit rate of the full screen: of about 110,000 compounds, about 1,400 (1.3%) were called active. What follows is part of a selection rich in actives, with near analogues and random picks from the rest.
Measured parameter: B-score

These solved cases illustrate the format of a correct answer.
CCO[C@@H]1OC(C(N)=O)=C[C@H](c2ccc(Br)cc2)[C@H]1CCCO :: -0.185 (inactive)
N/C(=N\OC(=O)Nc1ccc(Cl)c(Cl)c1)c1ncc(C(F)(F)F)cc1Cl :: 0.438 (inactive)
Cn1c(=O)cc(OCCCC(=O)N2CCN(Cc3ccc4c(c3)OCO4)CC2)c2ccccc21 :: -0.011 (inactive)
CCCC[C@@H]1CN=C(N)N1CCCC :: 0.44 (inactive)
COCOc1cc(O)c(C(=O)/C=C/c2ccc(OCOC)c(OCOC)c2)c(OCOC)c1 :: -0.154 (inactive)
CCCCN1C(=S)NC[C@@H]1C(C)CC (some centres not stated) :: -0.761 (inactive)

Query: B-score; subject: O=C(Nc1cccc2ccccc12)N1CCN(Cc2ccc3c(c2)OCO3)CC1
0.465 (inactive)

I would be grateful if you could share the reported B-score for CCOC(=O)c1sc(=S)n2c1[nH]c(=O)c1ccc(C(=O)OC)cc12 .
0.185 (inactive)

Quick check: B-score of CCCOc1ccccc1C1CC(=O)Nc2cc3c(cc21)OCO3 (configuration not stated) ?
-1.06 (inactive)

Which B-score value belongs to Cc1ccc(Cn2nnc3c(=O)n(CC(=O)N4CCCCC4)cnc32)cc1 ?
0.247 (inactive)

Please report the recorded B-score for Cc1nnc(NC(=O)Nc2ccc(Cl)c(Cl)c2)s1 .
-0.308 (inactive)

Item O=C(Cn1nnc(-c2ccccc2)n1)NCc1ccc2c(c1)OCO2 has what recorded B-score?
0.156 (inactive)

* * *

Property: B-score; scope: individual compounds
- Experimental target: Sodium-dependent dopamine transporter (Homo sapiens) (UniProt Q01959)
- Method: modulators of human DAT uptake with cocaine – cell-based, LLC-PK1 hDAT, [14C]-dopamine uptake, MLSMR, cocaine antagonist project, primary screen (AID 449768);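 note: scored against the spread of the other compound wells on the same plate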
- Stated conditions: LLC-PK1 hDAT cells, [14C]-dopamine uptake with cocaine IC80; at 10 µM; actives deviate in either direction
Hit rate of the full screen: of about 110,000 compounds, about 1,400 (1.3%) were called active. Many of the other results were omitted from the sample, so actives are more common in it than they were.

Reference set (5 entries):
CC(=O)N[C@H]1[C@H]([C@H](O)[C@H](O)CO)OC(C(=O)O)=C[C@@H]1O :: 0.169 (inactive)
O=C(Nc1ccccc1F)c1cc(S(=O)(=O)N2CCCCC2)cs1 :: 0.695 (inactive)
CCSc1nc2c(c(=O)[nH]1)C(c1cccnc1)C(C(=O)OC(C)C)=C(C)N2 (configuration not stated) :: 2.12 (active)
CCS(=O)(=O)Nc1cc(C(=O)OC)ccc1C(=O)OC :: 6.13 (active)
CCOC(=O)c1cc2ccccc2nc1C :: 0.593 (inactive)

Then this compound:
Reported B-score for COC(=O)c1ccc(C(=O)OC)c(NC(=S)N2CCCCC2)c1 : what is it?
0.301 (inactive)

* * *

- Experimental target: Sodium-dependent dopamine transporter (Homo sapiens)
- Method: modulators of human DAT uptake with cocaine – cell-based, LLC-PK1 hDAT, [14C]-dopamine uptake, MLSMR, cocaine antagonist project, primary screen (AID 449768);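 note: scored against the spread of the other compound wells on the same plate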
- Stated conditions: LLC-PK1 hDAT cells, [14C]-dopamine uptake with cocaine IC80; at 10 µM; actives deviate in either direction
Out of some 110,000 compounds screened, about 1,400 (1.3%) were called active. For the sample, actives were picked, then their nearest neighbours and some compounds at random.
A collection of compounds and their measured B-score
Number, no unit, nothing else.

Below, 3 compounds whose answers are already recorded.
CC[C@@H](C)[C@@H](C(=O)N1CCN(C(=O)OC(C)(C)C)CC1)n1cc(CCC(=O)O)nn1 :: -0.83
COc1ccc(C(CC(=O)N2CCN(c3ccccc3)CC2)c2c(O)cc(OC)cc2OC)cc1 (stereo not given) :: 1.37
C1=C(CCNc2ncnc3c2cnn3-c2ccccc2)CCCC1 :: 1.22

Given the compound O=C(NCCC1=CCCCC1)C1CCN(Cc2cnn(-c3ccccc3)c2-n2cccc2)CC1 , what is its reported B-score?
3.85

# lookup: B-score of CCCCN1C(N)=NC[C@@H]1Cc1ccccc1
-0.466

I would be grateful if you could share the reported B-score for COC(=O)c1c(C)cc(O)c(C)c1O .
-0.00953

Record request: B-score value, item COC(C[C@H](O)CC(=O)COCc1ccccc1)OC
-0.106

Any idea what B-score was measured for COc1cc(C2C(C(=O)c3ccc(C)o3)=C(O)C(=O)N2Cc2cccnc2)ccc1O (stereo not given) ?
-0.83

Quick one: B-score of C#CCOCCOCCOCCNc1nc(N2CCN(C(=O)[C@H](CCC(=O)O)n3cc(C(N)CO)nn3)CC2)nc(N2CCN(C(=O)[C@H](CCCCN)n3cc(C(N)[C@H](C)CC)nn3)CC2)n1 (stereo not given in full) ?
-0.0414

Param item = CC(=O)Nc1ccc(NC(=O)CSCc2cnn(-c3ccccc3)c2-n2cccc2)cc1 ; retrieve measured B-score.
0.28
